Cited source for all entries: BindingDB's records for doi:10.1016/S0960-894X(97)00406-X

# test.description: Compound was evaluated for the inhibition of Opioid receptor delta 1 binding to guinea pig brain membranes, using 0.2 nM [3H]naltrindole as radioligand
pKi: −log10 of the molar value.
Returns label 1 if the recorded pKi is greater than or equal to 7, and label 0 otherwise.

Previously resolved entries follow.
> print(dat)
                                   compound  class.name
1  CC(=O)Nc1cccc([C@H](CN2CCCC2)N(C)C(=O)Cc2ccc(Cl)c(Cl)c2)c1     label 0
2  CN(C(=O)Cc1ccc(Cl)c(Cl)c1)C(CN1CCCC1)c1cccc(NC(=S)Nc2ccc(-c3c4ccc(=O)cc-4oc4cc(O)ccc34)c(C(=O)O)c2)c1 (stereo not given)     label 1
3  CN(C(=O)Cc1ccc(Cl)c(Cl)c1)[C@H](CN1CCCC1)c1cccc(NC(=S)Nc2ccc(-c3c4ccc(=O)cc-4oc4cc(O)ccc34)c(C(=O)O)c2)c1     label 1

Now for another entry.
Q. Reported pKi reaches at least 7 for CC(=O)Nc1cccc([C@@H](CN2CCCC2)N(C)C(=O)Cc2ccc(Cl)c(Cl)c2)c1 ?
A. label 1
